The measurements presented in this section are drawn from PubChem BioAssay (NCATS).

# Tested on: HEK293
# PROTOCOL TEXT: Cytotoxic Profiling of Annotated Libraries Using Quantitative High-Throughput Screening (AID 1296008); note: nearly all actives have a fitted effect of over 60% in size
# EXPERIMENTAL CONDITIONS: Five cell lines viability, CellTiter-Glo ATP luminescence, 48-72 h
# Protocol: Cell-based phenotypic screening is a commonly used approach to discover biological pathways, novel drug targets, chemical probes and high-quality hit-to-lead molecules. […] A pintool (Kalypsys) was used to transfer 23 nL of compound solution to the 1536-well assay plates. […] Plates were left at room temperature for 10 min before imaging the ATP-coupled luminescence using a ViewLux microplate imager (PerkinElmer, Waltham, MA).
Results filed as inconclusive are left out. The source made the active and inactive calls. Calls come from the whole dose curve; as a rule, active = well fitted inhibition curve with a large enough effect; inconclusive = small, poorly fitted or top-dose-only effect; inactive = flat fitted curve, though single readings scatter.
READOUT KIND: outcome

> print(dat)
                                   molecule  obs.value
1  CCC[C@@H]1C[C@@H](C(=O)N[C@H](C(C)Cl)[C@H]2O[C@H](SC)[C@H](O)[C@@H](O)[C@H]2O)N(C)C1 (stereo partly drawn)   inactive
2  CCC(C)/C=C(C)/C=C/C1=CC2=C(Cl)C(=O)C(C)(OC(C)=O)C(=O)C2=CN1C1CCCCN(C(CCC(N)=O)C(=O)O)C1=O (stereo not drawn)   inactive
3  O=C(O[C@H]1[C@@H]2C=CO[C@@H](O[C@@H]3O[C@H](CO)[C@@H](O)[C@H](O)[C@H]3O)[C@@H]2[C@@]2(CO)O[C@@H]12)c1ccc(O)c(O)c1   inactive

---

# PROTOCOL TEXT: P-glycoprotein substrates identified in KB-8-5-11 adenocarcinoma cell line, qHTS therapeutic library screen (AID 1346987); note: nearly all actives have a fitted effect of over 65% in size; for activity change, negative = cytotoxicity: % is set by controls: 0 for no effect and ±100 for the full control effect
# EXPERIMENTAL CONDITIONS: KB-8-5-11 (P-gp overexpressing) viability, CellTiter-Glo, 72 h; series mostly up to 44.5 µM
Inconclusive results are not listed. Calls of active or inactive are those of the source. Calls come from the whole dose curve; as a rule, active = well fitted inhibition curve with a large enough effect; inconclusive = small, poorly fitted or top-dose-only effect; inactive = flat fitted curve, though single readings scatter.
READOUT KIND: activity change, negative = cytotoxicity

Previously resolved entries follow.
COMPOUND	activity change, negative = cytotoxicity
COC(=O)c1ccc(O[C@@H]2O[C@H](CO)[C@@H](O)[C@H](O)[C@H]2O)c(OC)c1	inactive
COc1cc(C(O)C(CO)Oc2ccc(CCCO[C@@H]3O[C@@H](C)[C@H](O)[C@@H](O)[C@H]3O)cc2OC)ccc1O (stereo partly specified)	inactive
COc1cc([C@@H]2Oc3c(OC)cc(CCCO)cc3[C@@H]2CO[C@@H]2O[C@H](CO)[C@@H](O)[C@H](O)[C@H]2O)ccc1O	inactive
C/C=C(\C)C(=O)O[C@@H]1CC2[C@@H](CC=C3C[C@@H](O[C@H]4C[C@H](OC)[C@H](O[C@H]5C[C@H](OC)[C@H](O[C@H]6C[C@H](OC)[C@H](O[C@H]7C[C@@H](OC)[C@H](O[C@@H]8O[C@H](CO)[C@@H](O)[C@H](O)[C@H]8O)[C@@H](C)O7)[C@@H](C)O6)[C@@H](C)O5)[C@@H](C)O4)CC[C@@]32C)[C@@]2(O)CC[C@H](C(C)=O)[C@@]12C (stereo partly specified)	3.56% [at 9.29 µM] (inactive)
C/C=C/C=C/C(CC(=O)O)Nc1ccc(C=O)cc1 (stereo unspecified)	inactive

Would you kindly share the measured activity change, negative = cytotoxicity for CC1CCC2(C(=O)OC3OC(CO)C(O)C(O)C3O)CCC3(C(=O)O)C(=CCC4C5(C)CCC(OC6OC(C)C(O)C(O)C6O)C(C)(C)C5CCC43C)C2C1C (stereo unspecified) ?
inactive
